# System: SF-295 CNS
# procedure-summary: NCI-60 one-dose screen, 48 h
# experimental-context: 10 µM unless noted
About 83,000 compounds went through this panel and 20% of them were active in at least one assay; those are over-represented in the sample as a whole. Active and inactive are the calls of the source. Rule for the calls: active = growth percent below 10; inactive = the rest.
Assign a class; possible classes are TRUE for active, FALSE for inactive

Below, 10 compounds whose answers are already recorded.
compound: COc1ccc(OC)c(C2C(C#N)=C(N)Oc3cc(O)ccc32)c1 (stereo unspecified)
class-name: FALSE
--
compound: COc1ccc(C(=O)C2=CC(=O)C(=O)C2)cc1OC
class-name: FALSE
--
compound: Cc1nc2cc(Nc3nc(N4CCOCC4)nc(N4CCN(C)CC4)n3)ccc2n1Cc1ccccc1
class-name: FALSE
--
compound: O=C1C(Cl)=C(NCCCN2CCOCC2)C(=O)c2ccccc21
class-name: FALSE
--
compound: CCCCCCCC/C=C\CCCCCCCCOc1cccc(CC(=O)NCC[N+]2(C)CCCCC2)c1
class-name: FALSE
--
compound: N#Cc1c(-c2cccc(F)c2)cc(-c2ccc(Br)s2)[nH]c1=O
class-name: FALSE
--
compound: COc1ccc(-c2cc(=O)oc3c4c(ccc23)OCN(Cc2ccc(F)cc2)C4)cc1
class-name: FALSE
--
compound: CCN1CCN(c2nc3ccccc3c3c(=O)c4cc(F)ccc4sc23)CC1
class-name: FALSE
--
compound: CC1=CN2C(=NC3=C(CCCC/C3=C\c3ccccc3)C2c2ccccc2)S1 (stereo unspecified)
class-name: FALSE
--
compound: O=C1CCC(N2C(=O)c3cccc(NCCOCCOCCNC(=O)c4cc5c(o4)C(=O)c4ccccc4C5=O)c3C2=O)C(=O)N1 (stereo unspecified)
class-name: TRUE

Inquiry: In this assay, the call recorded for CC1(C)CC(=O)C2=C(C1)Nc1cc3c(cc1C2c1ccc(F)cc1)OCO3 (stereo unspecified) was what?
Reply text: FALSE

Inquiry: Which outcome did this test record for the compound CC(C)(C)CC(C)(C)N(CSc1ccc(Cl)cc1)CSc1ccc(Cl)cc1 ?
Reply text: FALSE

Inquiry: Could you check what this test reported for NC(=O)c1cccc(-n2ccc3cc(NC(=O)Nc4ccc(Cl)c(Cl)c4)ccc32)n1 ?
Reply text: FALSE

Inquiry: What was the test verdict on CSc1ccc(OC(C)=O)cc1C ?
Reply text: FALSE

Inquiry: Please let me know the test result on file for CN1CCN(C)c2cncc(Br)c2C1=O .
Reply text: TRUE

Inquiry: What classification did O=C(C[Si](CC(=O)c1cccc(C(F)(F)F)c1)CC(=O)c1cccc(C(F)(F)F)c1)c1cccc(C(F)(F)F)c1 end up with in this test?
Reply text: TRUE

Inquiry: GET /call?item= O=[N+]([O-])c1cc2c(cc1Br)-c1ccccc1C2 returns the recorded outcome of this test.
Reply text: FALSE

Inquiry: For this compound, state the assay outcome: CCN1C(=O)C2(Nc3ccccc3S2)c2cc(C)ccc21 (stereo unspecified)
Reply text: FALSE

Inquiry: Hi, do you know how COc1cc2oc(-c3ccc(O)cc3)cc(=O)c2c(O)c1I came out in this test?
Reply text: FALSE

Inquiry: Record lookup: outcome of this test for Cc1nc2cc(Nc3nc(N4CCCCC4)nc(N4CCOCC4)n3)ccc2n1Cc1ccccc1 ?
Reply text: FALSE

Inquiry: Fill in: this test's call for COc1cccc(C2C3=C(COC3=O)N(CCO)c3cc4c(cc32)CCC4)c1 (stereo unspecified) is ___
Reply text: TRUE
